# reported CC50 at 24 h; entries follow
protocol_description: Cytotoxicity against human THP1 cells after 24 hrs by lactate dehydrogenase assay
Type: cell-based
setup_conditions: THP-1 cells, read-out: LD50

Cc1ccccc1NC(=O)c1ccc2ccccc2c1O = > 20 µM

### Prompt Look up and state reported CC50 at 24 h for O=C(Nc1ccc(Br)cc1)c1ccc2ccccc2c1O
### Response > 20 µM

### Prompt Read the entry O=C(Nc1cccc(Cl)c1)c1ccc2ccccc2c1O and write its reported CC50 at 24 h.
### Response > 20 µM

###

System: Mycolicibacterium smegmatis
protocol_description: Antimycobacterial activity against Mycobacterium smegmatis ATCC 700084 after 3 days by two-fold serial dilution method
Format: functional
setup_conditions: ATCC 700084, 72 h
property_name: MIC

Reference set (7 entries):
COc1ccc(NC(=O)c2ccc3ccccc3c2O)cc1 = > 873 µM
O=C(Nc1ccccc1F)c1ccc2ccccc2c1O = 228 µM
O=C(Nc1ccccc1C(F)(F)F)c1ccc2ccccc2c1O = > 773 µM
COc1cccc(NC(=O)c2ccc3ccccc3c2O)c1 = > 873 µM
NNC(=O)c1ccncc1 [ISONIAZID] = 117 µM
O=C(Nc1ccccc1Cl)c1ccc2ccccc2c1O = 860 µM
COc1ccccc1NC(=O)c1ccc2ccccc2c1O = > 873 µM

### Prompt Return reported MIC. Input compound: O=C(Nc1ccc(F)cc1)c1ccc2ccccc2c1O
### Response > 910 µM
